Recorded values, source the supplement of paper PMC10567573.

B1: ZNF75A (parent)
chain: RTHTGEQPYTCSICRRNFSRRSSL

# Variants of: B1
# EXPERIMENT: protein stability index of a GFP-peptide fusion (GPS, HEK-293T) (PSI 1-6); higher = more stable;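 note: lentivirally expressed fusions sorted by FACS into six bins by GFP to DsRed ratio, PSI derived from sequencing read proportions per bin multiplied by bin number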
# CONDITION_LABEL: c terminus: a fixed tail appended
Everything with protein stability index lower than 3 is F; everything else, including exactly 3, is T.

{"columns": ["VARIANT_CODE", "CLASS_NAME"],
 "data": [
  ["R21C", "F"],
  ["E6Q", "F"],
  ["R20E", "F"],
  ["R21K", "F"],
  ["R21S", "F"]
]}

Consider now this further variant.
Dear colleague, could you confirm whether R1Q has protein stability index at or above 3?
F
